tested on: HOP-92; assay: NCI tumour cell line growth inhibition, 48 h
Active and inactive are the calls of the source. Rule as the data show it: active = GI50 up to about 1.1 µM and inactive = higher.
# valid calls are active, inactive; nothing else

Sample answers from the record:
molecule	cat
CCN(CC)CC/N=C\c1c(O)c(O)c(C(C)C)c2cc(C)c(-c3c(C)cc4c(C(C)C)c(O)c(O)c(/C=N/CCN(CC)CC)c4c3O)c(O)c12	inactive
CCc1n[nH]c(=O)n1CCCCCCCCn1c(CC)n[nH]c1=O	inactive
C/C=C/[C@H]1O[C@@](O)([C@@H](C)[C@H](O)[C@H](C)[C@H]2OC(=O)/C(OC)=C/C(C)=C/[C@@H](C)[C@@H](O)[C@@H](CC)[C@@H](O)[C@H](C)C/C(C)=C/C=C/[C@@H]2OC)C[C@H](OC2CC(O)C(O)C(C)O2)[C@@H]1C (some centres not stated)	active
c1csc(-c2nccc3c2[nH]c2ccccc23)c1	inactive
O=C(CCSC(CC(=O)c1ccc(Cl)cc1)c1ccc(Cl)cc1)Nc1ccc(Cl)cc1 (configuration not stated)	inactive

We next turn to a different molecule, shown below.
Q: Can you look up the reported call for Cc1ccc(Sc2ccccc2[N+](=O)[O-])cc1 for me?
Result: inactive
